- Test system: ATP;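 note: ATP exposure 15 min at 22 °C before imaging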
- Test protocol: switch fluorescence ratio, 500 uM ATP over buffer (Cy3 cluster intensity, sum of 5 cycles each) (fold (ratio)); higher = stronger signal-on switching upon ATP binding; sequences stand for … in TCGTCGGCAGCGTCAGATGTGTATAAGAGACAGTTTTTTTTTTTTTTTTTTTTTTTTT…TC
- Details: aptamer strand: ATP DNA aptamer (quencher-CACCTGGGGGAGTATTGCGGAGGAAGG + anchor), 100 nM annealed; ATP concentration: 500 uM
If the reported switch fluorescence ratio equals or exceeds 1, assign TRUE. If not, assign FALSE.

{"columns": ["Sequence string", "Answer label"],
 "data": [
  ["TGGATGAAGA", "TRUE"],
  ["TCTGAGTCCA", "TRUE"],
  ["TTGTTCTAAC", "TRUE"],
  ["CCGGGTGACC", "TRUE"]
]}

Query string: Reported switch fluorescence ratio reaches at least 1 for TTTTTATCTG ?
Result string: FALSE

Query string: Please answer likewise for ATGCGGGTG
Result string: TRUE

----------
- Tested on: ATP;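 note: ATP exposure 15 min at 22 °C before imaging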
- Test protocol: switch fluorescence ratio, 500 uM ATP over buffer (Cy3 cluster intensity, sum of 5 cycles each) (fold (ratio)); higher = stronger signal-on switching upon ATP binding; sequences stand for … in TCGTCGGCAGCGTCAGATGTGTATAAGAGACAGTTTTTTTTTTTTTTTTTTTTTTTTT…TC
- Details: aptamer strand: ATP DNA aptamer (quencher-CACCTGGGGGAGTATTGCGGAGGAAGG + anchor), 100 nM annealed; ATP concentration: 500 uM
Measurement kind: switch fluorescence ratio

Use the examples below as a reference point.
{"columns": ["Sequence string", "Measurement kind", "Val"],
 "data": [
  ["TTTTAAGGTC", "switch fluorescence ratio", 1.02],
  ["TTTTTCAGTG", "switch fluorescence ratio", 0.991],
  ["CGCGGAGTGA", "switch fluorescence ratio", 1],
  ["AATCTGCCTG", "switch fluorescence ratio", 0.99],
  ["GAGGTTGGGC", "switch fluorescence ratio", 0.993],
  ["TACGGCTATC", "switch fluorescence ratio", 1.16],
  ["GGCCTTAGGG", "switch fluorescence ratio", 0.987],
  ["AGCGTTGAAG", "switch fluorescence ratio", 0.997],
  ["CAAAATGTTC", "switch fluorescence ratio", 1.02],
  ["CCTTCACCTT", "switch fluorescence ratio", 1.08]
]}

The record that follows has no switch fluorescence ratio shown yet.
Query string: Given ACTGACAGCG , state its recorded switch fluorescence ratio.
Result string: 1.02

----------
- System: ATP;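 note: ATP exposure 15 min at 22 °C before imaging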
- Test protocol: switch fluorescence ratio, 500 uM ATP over buffer (Cy3 cluster intensity, sum of 5 cycles each) (fold (ratio)); higher = stronger signal-on switching upon ATP binding; sequences stand for … in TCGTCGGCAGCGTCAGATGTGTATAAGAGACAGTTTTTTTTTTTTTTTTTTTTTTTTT…TC
- Details: aptamer strand: ATP DNA aptamer (quencher-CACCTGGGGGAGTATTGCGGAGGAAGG + anchor), 100 nM annealed; ATP concentration: 500 uM
Kindly return condition met if reported switch fluorescence ratio is no lower than 1; return condition not met if it is lower.

Example cases with answers are listed next.
{"columns": ["Sequence string", "Answer label"],
 "data": [
  ["GACGAGGGGG", "condition not met"],
  ["ATTCGGTTTT", "condition not met"],
  ["TTAAAGCCGG", "condition not met"],
  ["GAAGGGTAAC", "condition met"]
]}

Now, please, on to the next sequence.
Query string: Is switch fluorescence ratio for CGGGTGACGG at or above 1?
Result string: condition met

----------
- Test system: ATP;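 note: ATP exposure 15 min at 22 °C before imaging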
- Test protocol: switch fluorescence ratio, 500 uM ATP over buffer (Cy3 cluster intensity, sum of 5 cycles each) (fold (ratio)); higher = stronger signal-on switching upon ATP binding; sequences stand for … in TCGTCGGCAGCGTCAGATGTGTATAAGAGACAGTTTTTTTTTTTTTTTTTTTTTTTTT…TC
- Details: aptamer strand: ATP DNA aptamer (quencher-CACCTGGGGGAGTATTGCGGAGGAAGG + anchor), 100 nM annealed; ATP concentration: 500 uM
Note to self: values exactly at 1 are 1. So switch fluorescence ratio at or above 1 is 1, below is -1.

{"columns": ["Sequence string", "Answer label"],
 "data": [
  ["TTTCCCCAAT", 1]
]}

Query string: Is switch fluorescence ratio for GTCCACAGGT at or above 1?
Result string: 1

Query string: Follow-up item: TGATGTGGGG
Result string: -1

Query string: Field entry: CGTCGCAGAA
Result string: 1

----------
switch fluorescence ratio values by entry
- Tested on: ATP;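 note: ATP exposure 15 min at 22 °C before imaging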
- Test protocol: switch fluorescence ratio, 500 uM ATP over buffer (Cy3 cluster intensity, sum of 5 cycles each) (fold (ratio)); higher = stronger signal-on switching upon ATP binding; sequences stand for … in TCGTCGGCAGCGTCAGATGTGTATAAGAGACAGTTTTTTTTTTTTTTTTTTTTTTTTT…TC
- Details: aptamer strand: ATP DNA aptamer (quencher-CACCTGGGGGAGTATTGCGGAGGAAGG + anchor), 100 nM annealed; ATP concentration: 500 uM
// no unit string in output, number only

See these solved cases before continuing.
{"columns": ["Sequence string", "Tested on", "switch fluorescence ratio"],
 "data": [
  ["TATGTGTTTT", "ATP", 1.03],
  ["TTTCAGTGCT", "ATP", 0.995],
  ["TACGGGACGG", "ATP", 1.07],
  ["TGAAGTCCTT", "ATP", 1],
  ["CAAGAGGGCT", "ATP", 1.02],
  ["GCCATTAGAC", "ATP", 1.04],
  ["GTGTTTGGAA", "ATP", 0.993],
  ["TTAGTCAGGG", "ATP", 1.02],
  ["CGGTCAGGGG", "ATP", 1.11],
  ["GGGGGGGCCA", "ATP", 1.01]
]}

Query string: Recorded switch fluorescence ratio of TTTGGCTAAA , please.
Result string: 1

Query string: Record: TTGAGTGGGC
Result string: 0.979

Query string: Item: TTATTCGGGG
Result string: 0.968

Query string: Would you mind doing TGGACGGAAG as well?
Result string: 0.984

Query string: Also TGTTCCGGGA , if possible.
Result string: 1.04

Query string: Would you kindly repeat that for ATCTAACCGA ?
Result string: 1.06

Query string: Same question for TGAGGGTTGT please.
Result string: 1.01

Query string: # repeat for CGGGAGCTGG
Result string: 1.02

Query string: Entry CCGGGAACGC please
Result string: 1.29

Query string: Now the sequence CTGAGGCACG
Result string: 1.09

----------
- Test system: ATP;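 note: ATP exposure 15 min at 22 °C before imaging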
- Test protocol: switch fluorescence ratio, 500 uM ATP over buffer (Cy3 cluster intensity, sum of 5 cycles each) (fold (ratio)); higher = stronger signal-on switching upon ATP binding; sequences stand for … in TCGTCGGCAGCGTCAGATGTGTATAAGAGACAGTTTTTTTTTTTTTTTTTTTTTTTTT…TC
- Details: aptamer strand: ATP DNA aptamer (quencher-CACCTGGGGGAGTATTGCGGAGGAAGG + anchor), 100 nM annealed; ATP concentration: 500 uM
Measurement kind: switch fluorescence ratio
I only need the number, thanks.

{"columns": ["Sequence string", "switch fluorescence ratio"],
 "data": [
  ["TAGAATGTGG", 0.994]
]}

Query string: Given ATTTTGTTTG , state its recorded switch fluorescence ratio.
Result string: 0.994

Query string: // query: GTCTGAAGGG
Result string: 1.02

Query string: Now give it for TGATTTTTTG too.
Result string: 0.969

----------
- Test system: ATP;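 note: ATP exposure 15 min at 22 °C before imaging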
- Test protocol: switch fluorescence ratio, 500 uM ATP over buffer (Cy3 cluster intensity, sum of 5 cycles each) (fold (ratio)); higher = stronger signal-on switching upon ATP binding; sequences stand for … in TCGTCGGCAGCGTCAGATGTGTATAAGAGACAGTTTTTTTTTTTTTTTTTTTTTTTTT…TC
- Details: aptamer strand: ATP DNA aptamer (quencher-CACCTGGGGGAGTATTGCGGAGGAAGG + anchor), 100 nM annealed; ATP concentration: 500 uM
The following sequences are shown together with reported switch fluorescence ratio values.
Form field (numeric): enter value without unit.

Please review the entries below; each comes with its answer.
{"columns": ["Sequence string", "Measurement kind", "Val"],
 "data": [
  ["GATACGGTTA", "switch fluorescence ratio", 1.03],
  ["GGGTGACCAA", "switch fluorescence ratio", 0.969],
  ["AATATTTAGG", "switch fluorescence ratio", 0.987]
]}

Query string: Could you tell me which switch fluorescence ratio is on file for TTTTTTAGGA ?
Result string: 1.01

Query string: Repeat with TTTGTATGGA
Result string: 0.973

Query string: Follow-up entry: TTTGAGTCGG
Result string: 0.957
